Molecular target: GluN1/2A receptors (Rattus norvegicus, UniProt P35439+Q00959)
Construct: expressed in transfected cells; host or cells: tsA201 cells (HEK 293 variant)
Sequence (Q00959 23-1464, other chains not shown): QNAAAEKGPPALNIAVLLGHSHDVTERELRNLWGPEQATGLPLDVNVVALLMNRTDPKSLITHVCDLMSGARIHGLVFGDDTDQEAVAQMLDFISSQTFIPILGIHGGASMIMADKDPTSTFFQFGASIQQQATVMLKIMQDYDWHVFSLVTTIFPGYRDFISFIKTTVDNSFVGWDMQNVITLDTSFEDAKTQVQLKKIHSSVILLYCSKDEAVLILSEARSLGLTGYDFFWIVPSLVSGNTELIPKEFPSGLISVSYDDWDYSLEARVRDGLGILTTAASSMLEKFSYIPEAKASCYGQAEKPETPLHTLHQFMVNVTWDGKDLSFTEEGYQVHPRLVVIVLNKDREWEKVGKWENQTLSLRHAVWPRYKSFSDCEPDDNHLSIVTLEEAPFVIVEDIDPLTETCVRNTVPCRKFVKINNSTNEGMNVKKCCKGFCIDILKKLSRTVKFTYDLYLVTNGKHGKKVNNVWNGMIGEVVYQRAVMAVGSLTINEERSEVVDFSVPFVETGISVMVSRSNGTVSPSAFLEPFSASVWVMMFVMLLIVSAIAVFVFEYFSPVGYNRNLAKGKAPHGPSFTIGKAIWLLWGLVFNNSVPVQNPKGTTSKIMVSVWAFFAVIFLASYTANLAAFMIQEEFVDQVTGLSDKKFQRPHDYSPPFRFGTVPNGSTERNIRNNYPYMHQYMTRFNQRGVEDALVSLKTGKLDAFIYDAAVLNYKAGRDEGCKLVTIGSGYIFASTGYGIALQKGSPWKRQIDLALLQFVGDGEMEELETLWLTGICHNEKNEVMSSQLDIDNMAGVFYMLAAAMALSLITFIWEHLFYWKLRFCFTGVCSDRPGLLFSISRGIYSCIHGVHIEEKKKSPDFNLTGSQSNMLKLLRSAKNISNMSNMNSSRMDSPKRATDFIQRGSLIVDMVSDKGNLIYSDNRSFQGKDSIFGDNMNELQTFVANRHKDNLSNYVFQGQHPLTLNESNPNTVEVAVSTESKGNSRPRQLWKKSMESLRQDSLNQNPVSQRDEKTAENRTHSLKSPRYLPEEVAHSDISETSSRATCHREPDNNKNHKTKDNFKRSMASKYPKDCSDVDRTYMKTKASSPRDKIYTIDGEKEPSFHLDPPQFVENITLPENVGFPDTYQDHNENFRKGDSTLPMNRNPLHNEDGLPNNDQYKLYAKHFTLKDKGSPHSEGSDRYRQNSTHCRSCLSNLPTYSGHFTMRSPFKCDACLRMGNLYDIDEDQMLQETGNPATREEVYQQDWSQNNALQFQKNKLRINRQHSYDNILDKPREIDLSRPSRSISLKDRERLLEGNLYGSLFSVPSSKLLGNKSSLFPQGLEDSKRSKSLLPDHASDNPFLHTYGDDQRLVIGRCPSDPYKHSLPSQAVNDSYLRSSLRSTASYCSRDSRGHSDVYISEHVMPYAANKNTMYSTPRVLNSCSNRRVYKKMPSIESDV
Assay: MCI protocol, whole-cell recording from GluN1/2A NMDAR-expressing tsA201 cells
Type: cell-based
Settings: Memantine MCI IC50 of WT receptors, pH 7.2 (additional data set, Fig. 6h)
measuredMetric: pIC50
Note: pIC50 values are expressed as the negative base-10 logarithm of concentration in M.

Requested field: pIC50. Item: CC12CC3CC(C)(C1)CC(N)(C3)C2 [memantine]
4.16

----------
Target: GluN1/2A(M630A) receptors (Rattus norvegicus, UniProt P35439+Q00959, M630A)
Sequence (Q00959 23-1464 M630A, other chains not shown): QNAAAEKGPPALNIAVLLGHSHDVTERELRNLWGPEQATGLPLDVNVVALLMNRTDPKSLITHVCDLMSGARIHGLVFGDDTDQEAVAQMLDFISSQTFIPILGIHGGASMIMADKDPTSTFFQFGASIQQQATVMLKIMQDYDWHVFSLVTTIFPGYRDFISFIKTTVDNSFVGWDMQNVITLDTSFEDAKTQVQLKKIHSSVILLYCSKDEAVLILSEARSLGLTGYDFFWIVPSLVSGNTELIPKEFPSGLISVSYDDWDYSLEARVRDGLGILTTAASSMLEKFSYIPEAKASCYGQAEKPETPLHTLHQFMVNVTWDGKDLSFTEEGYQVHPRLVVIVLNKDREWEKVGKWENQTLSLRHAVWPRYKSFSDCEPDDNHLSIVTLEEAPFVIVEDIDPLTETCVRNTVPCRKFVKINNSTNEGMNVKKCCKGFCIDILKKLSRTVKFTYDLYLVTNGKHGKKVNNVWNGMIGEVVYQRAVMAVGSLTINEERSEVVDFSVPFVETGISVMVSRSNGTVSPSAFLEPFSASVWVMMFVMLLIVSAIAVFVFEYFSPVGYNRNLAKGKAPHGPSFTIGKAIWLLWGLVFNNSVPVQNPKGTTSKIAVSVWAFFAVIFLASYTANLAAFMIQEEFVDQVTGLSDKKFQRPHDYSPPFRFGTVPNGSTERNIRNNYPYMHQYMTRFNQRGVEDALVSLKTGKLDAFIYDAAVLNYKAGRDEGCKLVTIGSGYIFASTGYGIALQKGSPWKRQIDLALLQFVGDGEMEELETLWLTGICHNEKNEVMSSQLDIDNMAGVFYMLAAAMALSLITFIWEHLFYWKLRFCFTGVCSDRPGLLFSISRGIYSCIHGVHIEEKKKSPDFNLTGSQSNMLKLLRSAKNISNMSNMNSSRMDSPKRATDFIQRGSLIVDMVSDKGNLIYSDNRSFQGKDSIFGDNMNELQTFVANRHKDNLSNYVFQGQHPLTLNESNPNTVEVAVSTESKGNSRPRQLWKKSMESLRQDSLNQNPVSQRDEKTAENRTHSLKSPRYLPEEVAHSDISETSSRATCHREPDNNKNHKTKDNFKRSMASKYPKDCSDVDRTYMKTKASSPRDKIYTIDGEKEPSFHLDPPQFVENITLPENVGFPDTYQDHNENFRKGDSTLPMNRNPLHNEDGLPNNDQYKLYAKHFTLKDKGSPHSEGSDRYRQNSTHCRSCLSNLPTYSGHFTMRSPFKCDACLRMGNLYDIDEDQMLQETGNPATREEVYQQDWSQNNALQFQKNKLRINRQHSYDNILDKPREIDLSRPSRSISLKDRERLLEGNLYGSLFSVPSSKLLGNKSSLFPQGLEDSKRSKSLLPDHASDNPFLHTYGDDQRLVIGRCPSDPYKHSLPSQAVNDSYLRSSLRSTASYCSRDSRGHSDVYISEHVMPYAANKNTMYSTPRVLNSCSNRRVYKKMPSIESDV
Test: Traditional [memantine]-inhibition curve, GluN1/2A(M630A)
measuredMetric: pIC50
Quick note: pIC50 means taking -log10 of the concentration in moles per liter.

Field request: pIC50 | item: CC12CC3CC(C)(C1)CC(N)(C3)C2 [memantine]
5.78
